The entries below are paired with their reported LE (ligand efficiency).
- tgt: S6K1 (Homo sapiens, UniProt P23443)
- Sequence (P23443 1-421): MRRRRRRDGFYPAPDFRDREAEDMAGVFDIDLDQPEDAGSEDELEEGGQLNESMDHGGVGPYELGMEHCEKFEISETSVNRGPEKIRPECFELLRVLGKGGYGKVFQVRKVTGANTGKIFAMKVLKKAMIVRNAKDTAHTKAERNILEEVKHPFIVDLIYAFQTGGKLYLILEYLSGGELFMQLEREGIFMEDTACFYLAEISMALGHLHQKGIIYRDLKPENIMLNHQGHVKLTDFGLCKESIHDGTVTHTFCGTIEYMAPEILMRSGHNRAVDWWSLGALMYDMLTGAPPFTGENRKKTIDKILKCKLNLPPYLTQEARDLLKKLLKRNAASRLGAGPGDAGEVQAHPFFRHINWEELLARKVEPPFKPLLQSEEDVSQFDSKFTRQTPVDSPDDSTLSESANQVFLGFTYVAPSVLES
- assay.details: S6K1 mobility shift (microfluidic) assay
- Assay type: biochemical
- assay.conditions: Table 6; calculated using the mean IC50 values
readout.kind: LE (ligand efficiency)

INSERT INTO assay_data (molecule, tgt, result_value) VALUES
  ('CCn1c(-c2nonc2N)nc2cnc(Oc3cccc(S(C)(=O)=O)c3)cc21 [Compound 21b]', 'S6K1 (Homo sapiens, UniProt P23443)', 0.34),
  ('CCn1c(-c2nonc2N)nc2cnc(Br)cc21 [Compound 21a]', 'S6K1 (Homo sapiens, UniProt P23443)', 0.59),
  ('CCn1c(-c2nonc2N)nc2cnc(N3CCOCC3)cc21 [Compound 21d]', 'S6K1 (Homo sapiens, UniProt P23443)', 0.42),
  ('CCn1c(-c2nonc2N)nc2cnc(C)cc21 [Compound 21e]', 'S6K1 (Homo sapiens, UniProt P23443)', 0.60);

----------
- tgt: S6K1 (Homo sapiens, UniProt P23443, T412E)
- Construct: The His-tagged kinase domain of S6K1 (residues 1-421, catalogue number 14-486) used in the HTS; His; purchased Millipore (Upstate/Millipore) 14-486
- Sequence (P23443 1-421 T412E limits assumed): as the sequence (P23443 1-421) above, with T412E counted along it
- assay.details: S6K1 DELFIA phosphorylation assay (IC50 of screening hits)
- Assay type: biochemical
- assay.conditions: HTS hits, repurchased samples
pIC50: −log10 of the molar value.
readout.kind: pIC50

INSERT INTO assay_data (molecule, readout_kind, result_value) VALUES
  ('C=CCn1c(-c2nonc2N)nc2ccccc21 [Compound 11]', 'pIC50', 5.15);

----------
The entries below are paired with their reported IC50.
- tgt: S6K1 (Homo sapiens, UniProt P23443)
- assay.details: S6K1 mobility shift (microfluidic) assay
- Type: biochemical
- assay.conditions: Table 4; mobility shift assay; mean ± SD triplicate, or duplicate/single measurement as footnoted; read-out: S6K1 IC50
readout.kind: IC50 (nM)

INSERT INTO measurements (compound, readout_kind, unit_symbol, operator_symbol, result_value) VALUES
  ('CCn1c(-c2nonc2N)nc2ccccc21 [Compound 15b]', 'IC50', 'nM', '=', 59.8),
  ('Nc1nonc1-c1nc2ccccc2n1Cc1ccccc1 [Compound 15d]', 'IC50', 'nM', '>', 100000),
  ('Nc1nonc1-c1nc2ccccc2n1CC1CC1 [Compound 15e]', 'IC50', 'nM', '=', 19.8),
  ('Cn1c(-c2nonc2N)nc2ccccc21 [Compound 15a]', 'IC50', 'nM', '=', 194),
  ('Nc1nonc1-c1nc2ccccc2n1C1CC1 [Compound 15c]', 'IC50', 'nM', '=', 36.6);

----------
- tgt: S6K2 (Homo sapiens)
- Sequence (Q9UBS0 whole entry): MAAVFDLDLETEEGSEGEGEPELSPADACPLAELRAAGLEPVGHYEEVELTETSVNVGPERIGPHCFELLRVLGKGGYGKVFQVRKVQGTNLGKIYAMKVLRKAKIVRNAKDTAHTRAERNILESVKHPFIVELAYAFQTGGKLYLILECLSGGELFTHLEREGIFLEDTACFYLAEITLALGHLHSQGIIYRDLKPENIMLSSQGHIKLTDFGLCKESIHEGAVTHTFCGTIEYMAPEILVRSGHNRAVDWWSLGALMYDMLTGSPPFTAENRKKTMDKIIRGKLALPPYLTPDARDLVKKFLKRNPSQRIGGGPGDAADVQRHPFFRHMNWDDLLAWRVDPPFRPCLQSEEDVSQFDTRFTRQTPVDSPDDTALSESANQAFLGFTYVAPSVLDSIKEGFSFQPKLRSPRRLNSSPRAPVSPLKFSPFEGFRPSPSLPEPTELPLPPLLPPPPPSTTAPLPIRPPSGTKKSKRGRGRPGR
readout.kind: IC50 (nM)

INSERT INTO results (compound, readout_kind, unit_symbol, result_value) VALUES
  ('CCn1c(-c2nonc2N)nc2cnc(C)cc21 [Compound 21e]', 'IC50', 'nM', 300);

----------
- tgt: S6K1 (Homo sapiens)
- assay.details: S6K1 mobility shift (microfluidic) assay
- Assay type: biochemical
- assay.conditions: Table 6; mobility shift assay; mean ± SD triplicate, or duplicate ± SE / single measurement as footnoted; read-out: S6K1 IC50
readout.kind: IC50 (nM)

INSERT INTO assay_data (compound, operator_symbol, result_value) VALUES
  ('CCn1c(-c2nonc2N)nc2cnc(N3CCOCC3)cc21 [Compound 21d]', '=', 110),
  ('CCn1c(-c2nonc2N)nc2cnc(-c3ccccc3)cc21 [Compound 21c]', '>', 100000),
  ('CCn1c(-c2nonc2N)nc2cnc(C)cc21 [Compound 21e]', '=', 17.4),
  ('CCn1c(-c2nonc2N)nc2cnc(Br)cc21 [Compound 21a]', '=', 19.7),
  ('CCn1c(-c2nonc2N)nc2cnc(Oc3cccc(S(C)(=O)=O)c3)cc21 [Compound 21b]', '=', 103);

----------
The entries below are paired with their reported LE (ligand efficiency).
- tgt: UniProt:P23443
- assay.details: S6K1 mobility shift (microfluidic) assay
- Assay type: biochemical
- assay.conditions: Table 4; calculated using the mean IC50 values
readout.kind: LE (ligand efficiency)

INSERT INTO measurements (molecule, result_value) VALUES
  ('CCn1c(-c2nonc2N)nc2ccccc21 [Compound 15b]', 0.59),
  ('Nc1nonc1-c1nc2ccccc2n1CC1CC1 [Compound 15e]', 0.56),
  ('Nc1nonc1-c1nc2ccccc2n1C1CC1 [Compound 15c]', 0.57),
  ('Cn1c(-c2nonc2N)nc2ccccc21 [Compound 15a]', 0.58);

----------
- tgt: S6K1 (Homo sapiens)
- assay.details: S6K1 mobility shift (microfluidic) assay
- Format: biochemical
- assay.conditions: acetylated aminooxadiazole; read-out: S6K IC50
pIC50: −log10 of the molar value.
readout.kind: pIC50

INSERT INTO assay_data (mol, tgt, readout_kind, result_value) VALUES
  ('CC(=O)Nc1nonc1-c1nc2ccccc2n1C1CC1', 'S6K1 (Homo sapiens)', 'pIC50', '< 4.00');

----------
- System: S6K-Ser421/424
- assay.details: Electrochemiluminescent ELISA, S6K-Ser421/424 phosphorylation in intact cells
- Type: cell-based
- assay.conditions: Homo sapiens, electrochemoluminescent ELISA
pIC50: −log10 of the molar value.
readout.kind: pIC50

INSERT INTO measurements (molecule, tgt, result_value) VALUES
  ('CCn1c(-c2nonc2N)nc2cnc(C)cc21 [Compound 21e]', 'S6K-Ser421/424', '< 4.82');

----------
- tgt: S6K1 (Homo sapiens, UniProt P23443)
- assay.details: S6K1 mobility shift (microfluidic) assay
- Assay type: biochemical
- assay.conditions: Table 5; calculated using the mean IC50 values
The entries below are paired with their reported LE (ligand efficiency).
readout.kind: LE (ligand efficiency)

INSERT INTO assay_data (molecule, readout_kind, result_value) VALUES
  ('CCn1c(-c2nonc2N)nc2cc(C3CC3)ccc21 [Compound 20c]', 'LE (ligand efficiency)', 0.45),
  ('CCn1c(-c2nonc2N)nc2cc(Br)ccc21 [Compound 20a]', 'LE (ligand efficiency)', 0.55),
  ('CCn1c(-c2nonc2N)nc2cc(NC)ccc21 [Compound 20e]', 'LE (ligand efficiency)', 0.50),
  ('CCn1c(-c2nonc2N)nc2cccc(-c3cccnc3)c21 [Compound 20g]', 'LE (ligand efficiency)', 0.39),
  ('CCn1c(-c2nonc2N)nc2cccc(Br)c21 [Compound 20f]', 'LE (ligand efficiency)', 0.50),
  ('CCn1c(-c2nonc2N)nc2cc(OC)ccc21 [Compound 20d]', 'LE (ligand efficiency)', 0.52),
  ('CCn1c(-c2nonc2N)nc2cc(-c3ccccc3)ccc21 [Compound 20b]', 'LE (ligand efficiency)', 0.35);

----------
- tgt: UniProt:P23443
- assay.details: S6K1 mobility shift (microfluidic) assay
- Format: biochemical
- assay.conditions: Table 5; mobility shift assay; mean ± SD triplicate, or single measurement as footnoted; read-out: S6K1 IC50
Labelling field: enter T if recorded IC50 is less than 100 nM. Enter F if it equals or exceeds that cut-off.

INSERT INTO assay_data (molecule, class_assignment) VALUES
  ('CCn1c(-c2nonc2N)nc2cc(NC)ccc21 [Compound 20e]', 'F'),
  ('CCn1c(-c2nonc2N)nc2cc(Br)ccc21 [Compound 20a]', 'T'),
  ('CCn1c(-c2nonc2N)nc2cccc(-c3cccnc3)c21 [Compound 20g]', 'F'),
  ('CCn1c(-c2nonc2N)nc2cc(-c3ccccc3)ccc21 [Compound 20b]', 'F'),
  ('CCn1c(-c2nonc2N)nc2cc(OC)ccc21 [Compound 20d]', 'T'),
  ('CCn1c(-c2nonc2N)nc2cccc(Br)c21 [Compound 20f]', 'F'),
  ('CCn1c(-c2nonc2N)nc2cc(C3CC3)ccc21 [Compound 20c]', 'F');
